Species on record: Rattus norvegicus
Protocol Notes: DrugMatrix - Regimen: Daily Repeat
Assay type: toxicity, organism-based, Sprague-Dawley
Parameters: regimen Daily Repeat, gender Male, age 6-8 weeks
Experimental Setup: in vivo, po, 0 mg/kg, 72 h, tissue Plasma, route oral GAVAGE, dose level Control, time 3 day, vehicle .5 % CMC
Property Label: PHOSPHORUS (mg/dL)

Molecule: COc1ccc2c(c1OC)C(=O)O[C@@H]2[C@H]1c2c(cc3c(c2OC)OCO3)CCN1C
Property Label: PHOSPHORUS
Val: 11.43
--
Molecule: CCn1cc(C(=O)O)c(=O)c2cc(F)c(N3CCNC(C)C3)c(F)c21 (configuration not stated)
Property Label: PHOSPHORUS
Val: 10.48
--
Molecule: C[C@@H]1O[C@@H](O[C@H]2C[C@@H](O)[C@]3(CO)[C@H]4[C@H](O)C[C@]5(C)[C@@H](C6=CC(=O)OC6)CC[C@]5(O)[C@@H]4CC[C@]3(O)C2)[C@H](O)[C@H](O)[C@H]1O
Property Label: PHOSPHORUS
Val: 12.1
--
Molecule: COc1cc(OC)c(C(=O)CCCN2CCCC2)c(OC)c1
Property Label: PHOSPHORUS
Val: 12.4
--
Molecule: CN1CCN(C2=Nc3cc(Cl)ccc3Nc3ccccc32)CC1
Property Label: PHOSPHORUS
Val: 11.43
--
Molecule: CCC1=C(C)CN(C(=O)NCCc2ccc(S(=O)(=O)NC(=O)N[C@H]3CC[C@H](C)CC3)cc2)C1=O [GLIMEPIRIDE]
Property Label: PHOSPHORUS
Val: 11.57
--
Molecule: CCCNC(=O)NS(=O)(=O)c1ccc(Cl)cc1 [CHLORPROPAMIDE]
Property Label: PHOSPHORUS
Val: 11.43
--
Molecule: C[C@H]1[C@H](NC(=O)/C(=N\OC(C)(C)C(=O)O)c2csc(N)n2)C(=O)N1S(=O)(=O)O
Property Label: PHOSPHORUS
Val: 12.25
--
Molecule: C[C@@](Cc1ccc(O)c(O)c1)(NN)C(=O)O.O
Property Label: PHOSPHORUS
Val: 12.25
--
Molecule: CCOc1nc2cccc(C(=O)O)c2n1Cc1ccc(-c2ccccc2-c2nnn[nH]2)cc1
Property Label: PHOSPHORUS
Val: 12.47
--
Molecule: COc1ccccc1[N+](=O)[O-]
Property Label: PHOSPHORUS
Val: 11.5
--
Molecule: CCCCC1=NC2(CCCC2)C(=O)N1Cc1ccc(-c2ccccc2-c2nnn[nH]2)cc1
Property Label: PHOSPHORUS
Val: 9.12
--
Molecule: NC(=O)N1c2ccccc2CC(=O)c2ccccc21 [OXCARBAZEPINE]
Property Label: PHOSPHORUS
Val: 11.67
--
Molecule: C[C@]12CC[C@@H]3c4ccc(O)cc4CC[C@H]3[C@@H]1C[C@@H](O)[C@@H]2O
Property Label: PHOSPHORUS
Val: 11.23
--
Molecule: C#C[C@]1(O)CC[C@H]2[C@@H]3CCC4=CC(=O)CC[C@]4(C)[C@H]3CC[C@@]21C
Property Label: PHOSPHORUS
Val: 11.43
--
Molecule: CN(C)C(=O)C(CCN1CCC(O)(c2ccc(Cl)cc2)CC1)(c1ccccc1)c1ccccc1 [LOPERAMIDE]
Property Label: PHOSPHORUS
Val: 11.57
--
Molecule: CN1C(=O)CN=C(c2ccccc2)c2cc([N+](=O)[O-])ccc21
Property Label: PHOSPHORUS
Val: 11.23
